Experiment: soluble on expression in E. coli; label from the status in PepcDB or PDB records
test readout: soluble on expression in E. coli

Solved entries:
MGSDKIHHHHHHMFALAASNMILRGDGKANLHQSSCFMTDFQDLIKNPKPETGLKRPNVGFLNPPYAQSKSDAELHELYFVKEMLDMLAEGGTGIAIIPVSCVIAPSKAKSEIVKYHRLKAVMSMPSELFYPVGTVTCIVVFEAHKPHFQTVVIDPDTQEEISTKKACRKTWFGYWRDDGFEKTKHLGRIDLYDRWQGIKARWLEHYLNNEVHTGESVTAFVTDNDEWVAEAYLETDYSKITRADFEQVVREFALFQLLGAEVGPTENLDNESYEDDDNNDFGDDE; not soluble
MGSDKIHHHHHHQTPAPLAEWQFSAGIPLEKLFEDTIPDWEVRLGGAAMVRPRYDGSSNYIVVGGPSIDIRYRDIAFASIGEGLGVNVLRGKNWRAGIALSYNLGRRAKETSPLLDGMENINPAPEAKLFAEYAVSKEFPLVMRVDARRSLGGSDGWIGDIGAYMPMPGSSEKFFWFAGPTMTLADSRYMNAWYGVSASQARPGRPQFSPSGGVRSYGFGVSAVWFFDKHWFATTDVAVMQLVGDAKRSPLTQSSTNGVFDVSVNYQF; not soluble
TDPDCDRVGIVVKDSSGEYVVLNGNQVGSLLVRYILESLVEENKLPKNNPTIIKTIVTSELGAKIAKAYNVDCLNTLTGFKFIGEKIKAFEESNDRSFIMGYEESYGYLIGTHARDKDGVVSSLMICEMAAYYSSKGMNLYEALIDTYNKFGY; not soluble
MGHHHHHHSHLGHSTMYMWAMGDREVFIELAEALTGARLTHSYPIPGGARRDIPADFPDMARRAVRYMRKRLDEYAKIFLNNPVIRSRLEGVGVIPKKAAAEMGIVGPNARGSGIDYDVRLVHPYDAYPEIDFEVPVFEEGDALARTYVRVEEIKQSLRIIEQAVEWLEKHPREPIVDKYLYGKYPPLHKKVLEAEGRAKLLPTVAAMKVPPGRAIGRAETGRGETVYYVESDGGVNPYRVRIVTASARNVIAFKYVLPGHRVMDIPAIYGSLDYFPPEADR; not soluble
MTELKLIHIFTDGSCLGNPGPGGYGIVMKYKGHTKEMSGGFSLTTNNRMELLAPIVALEALKEPCKIILTSDSQYVRQGIMTWIHGWKKNGWMTSNGTPVKNVDLWKRLDKAAQLHQIDWRWVKGHAGHAENERCHQLARAAAEANPTQIDTGYQAES; soluble

Lookup: // query soluble on expression in E. coli value for entry MAHHHHHHMHQHGKTSGTDGSGATVSQSSSGFMETPWRIFEYGVASEQGSRKTMEDQHAMVAESFPFFAVYDGHGGTQCAEFLRDNLHTFIFGQPEIETDPERATRAGIAEAENAFLTKCADEKIESGSTCAVALVVDDTLIAGNVGDSEIVLCRAGAPIVLSTKHSIQDNVSEGERVKACGGRIISNRVGHPKFNPQLLSLAITRAIGDAGFKLREFTDGKPSGVIADAETRSTRLTDDDKFLIIGCDGLWDVMSYEAAVQLCSRLASEGETPKAIAGSLCQEALRQGSTDNVTCIYINIRAKSSAPGCGQLGSGDPLHNM
Found: soluble

Lookup: // query soluble on expression in E. coli value for entry MDNKLSKIPTETFGEYIKRIRELRGYSQRKLSTLSDLSNTTICRIEKGSENGIENPDAETVVKLAEGLKLEKKALLIAAGYLDNENVEETTDLKECIRIALQKLGWINSYNDINEETITYVEFLLKKYGNKYKQIP
Found: not soluble
